Data origin, for the record: the supplement of paper PMC9112550

# Tested on: Escherichia coli TOP10;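 also: peptides expressed intracellularly from a pBAD plasmid library in pooled LB shake-flask culture, induced with 0.3% L-arabinose, DNA abundance read by NGS, three biological replicates, DESeq2 with apeglm shrinkage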
# testProtocol: shrunken log2 fold change of peptide-encoding DNA abundance (4.5 h post-induction vs induction); higher = less antimicrobial activity (less host growth inhibition)
# statedConditions: time post-induction: 4.5 h; library: site-saturation at positions 5, 18, 19, 20
I'd be grateful if you could share measured shrunken log2 fold change for these entries.
Lab note: jot down the number only; don't add units.

Query :: May I ask what shrunken log2 fold change has been recorded for `RRIRFRPPRLPRPRPRPGLAPRP` ?
Result :: 0.344

Query :: And then `RRIRKRPPRLPRPRPRPKHEPRP` , what is it?
Result :: 0.134

Query :: Please do the same for `RRIRYRPPRLPRPRPRPFDYPRP` as well.
Result :: -0.184

Query :: Now the sequence `RRIRFRPPRLPRPRPRPPSYPRP`
Result :: -0.0274

Query :: Another sequence to check: `RRIRTRPPRLPRPRPRPLCTPRP`
Result :: -0.106

Query :: Could you do the same for `RRIRNRPPRLPRPRPRPNFLPRP` , please?
Result :: -0.0488

Query :: Entry to check: `RRIRTRPPRLPRPRPRPMMEPRP`
Result :: -0.202

Query :: // next record `RRIRYRPPRLPRPRPRPVKGPRP`
Result :: -0.015
